# SUBJECT OF TEST: the molecule itself
# METHOD SUMMARY: SEC-MALS; fragments of the 3HB/SAH junction on Superdex 200 10/300 Increase, 0.5 mL/min; titration; apparent KD, dimer to monomers
METRIC: Kd

The recorded Kd for Myo6 875-940 (N-terminal 6xHis-tag, pET14) (domain or fragment, mouse, UniProt Q64331 875-940, looked up, mouse myosin VI aa 875-940: 2nd and 3rd helix of the 3HB and first part of the SAH; also called aa 875-940; 875-940 peptide; source: E. coli BL21 (DE3), purified (IMAC, SEC)) EISIDALMAKIKSTMMTREQIQKEYDALVKSSEDLLSALQKKKQQEEEAERLRRIQEEMEKERKRR is ~19 µM
